assay: label from the status in PepcDB records
quantityMeasured: protein production

INSERT INTO results (recordsequence, endpointresult) VALUES
  ('MSISDNSRDQLGELPAGRPLQSDFDNDLDYPRLGSVTFRRGTLTENQQTMWDEKWPELGRVLEDELIDVDAWFGREGAKTIVEIGSGTGTSTAAMAPLEADTNIVAVELYKPGLAKLMGSVVRGEIDNVRMVRGDGIEVLNRMFADGSLDGIRVYFPDPWPKARHNKRRIIQSGPLNLFAKKLKPGGVLHVATDHADYAEWINELVEVEPLLEYKGWPWEECPQLTDRQVITKFEGKGLEKDHVINEYLWQKVQN', 'failed'),
  ('MKLLVVDDSSTMRRIIKNTLSRLGYEDVLEAEHGVEAWEKLDANADTKVLITDWNMPEMNGLDLVKKVRSDSRFKEIPIIMITTEGGKAEVITALKAGVNNYIVKPFTPQVLKEKLEVVLGTND', 'failed'),
  ('GGGTRFALVAGTTETAGRAGISAAGADPELMSVTPAADAELVTYGTPVRTDVTPVSPSGCPTPALVTRAAREVLGFDVTVVDGGLAEKTGAPTVSVGARPGKDIAEQDPVSTAHGAFAAARQFGQSLPADELYLGETIPGGTTTALGVLRALGEDGMVSSSLPENPTAQKSEVVAEGLQASSLEPGDAANEPKRAVRRMGDPVLATLAGLTAGAVESDTAVTLAGGSQCVAVAALVRHGGYEGPLGLATTSYVADDESADVRASVDRLDLDLTVTDPGFDRSDHVAMERFVAGEAKEGVGMGGALALADRAGI', 'failed'),
  ('MLLQPSRVRSGGRARWHAVQCAAAVTIGRDHPRHRYTRAMSSPLSCRLGCAACCIAPSISSPIPGMPNGKPAGVACVQLDAQLGCRLFGSPLRPAVCGNLRPSLEMCGTSRKQALSMLAALERATQP', 'failed'),
  ('DMAFQLRTERLDLNMWEESDAVWLRELIGERGVEMPTVESVRNDLIEKRKIAVENGISLLTIRRRDEGDFIGYCGLIIGRSTLEEPEIAYELFRSAHRMGYATEAASAVLEAAIATGRKRLWSTVGAWNTASFRVLEKIGFKR', 'failed'),
  ('MIEEYLLRALLASLMVSTLLGLLSPLINVKGVAFLTHATFHALLFGAVLGMILGLIMGDLSLIFWISLLIAIIVVIGIAEMEIRGYSSDTAVGTMAGIIAGLTVLGFGILYKVMASRPYFALSESIVSYLTGEIFLITFDDLTLLVIGGFLVFTIMVIFYRDFLYLSFDPEGLESHGGNVRLYLMLLYFLVGAVGGLIVKTVGLITLQVLAVLPGAIALTISRGIREFVGISLGLTLAIQVSSTFLGYYFNIPPSGLATIFLGTIYGVLALRRKII', 'failed'),
  ('MLNFTVGPVMSSEEVRAIGAEQVPYFRTTEFSSTMLENEKFMLEYAKAPEGSKAVFMTCSSTGSMEAVVMNCFTKKDKVLVIDGGSFGHRFVQLCEIHEIPYVALKLEHGKKLTKEKLYEYDNQNFTGLLVNVDETSTAVLYDTMMIGEFCKKNNMFFVCDCVSAFLADPFNMNECGADVMITGSQKVLACPPGISVIVLAPRGVERVEKSKVRTMYFDLKDALKNQERGQTPFTPAVGILLQINERLKEIKKHGGADAEVARIASQAADFRAKIKDLPFELVSESPANGVTSVHPTTANAYDIFLKLKDEYGIWICPNGGEMKDTIFRVGHIGALTHEDNTTLVNAFKDLQKRNLL', 'not failed'),
  ('MGITITDELLWAILKDELSDAEANALVWQALGYVWDEAQSCWKTDLVAPEWRQDYPEPPDFIASRPATVKLTRSIPAPYKQLLKEELGFAGYSINELVPRKTRRATMTNWLLAYRRSQQD', 'not failed'),
  ('MAGCGANDTSSTKEKASSEKSGVTKEITASVNKMETIISKLNDSVEKGDQKEIEKKGKELNSYWLSFENDIRSDYPFEYTEIEKHLQPIYTEAQKDKPDAGKIKTESESLKASLEDLTEAKKSGKKASDQLAKAADEYKGYVKEQSDQLVKATEAFTGAVKSGDIEKSKTLYAKARVYYERIEPIAESLGDLDPKIDARENDVEEGDKWTGFHKLEKAIWKDQDISGEKATADQLLKDVKELDGSIQSLKLTPEQIVAGAMELLNEAGISKITGEEERYSRIDLVDLMANVEGSEAVYQTVKSALVKDHSDLTEKLDTEFSEFEVLMAKYKTNDQSYTSYDKLSEKQIRELSTKLTTLSETMSKIANVLLEHHHHHH', 'not failed'),
  ('FFSNAEVAERLAYPQLIEALRIGLAKPCSAPLRNCHALPAQASLLQMPVWQAGAGIGVKLVTVFPGNGARGLPAVAAVFALFDGEDGRPLALLEASELTARRTACSSALAADYLARDDARRLLVVGCGTLAAHMVRAHACVRDYRHIDIWGRDPAKAAALAARLREEGYPARAADGLRAAVEAADCVSCVTTSREALVRGAWLKPGVHLDLVGAFLPSMRETDVLAVARARVVVDTRAGALEEAGDLLQAIAEGAIGREAISTELRDLLSGAGRRGDPGEITLFKSVGYALEDLVAARRVV', 'failed'),
  ('MKDGEAATGQAASRPKRADARRNEKNLLDAAAAVFVRSGVEAPVRDIAAEAGVGTATIYRHFPTRADLIIGVYRHQVEACAEAGPALLASSPTPYAALAGWIDLFVDFLVTKHGLAAVLQSDSAGFETLHAYFLDRLVPVCTDLLAAATDSGEIDTDVPPLALMRGVGNLCIGAETPNPSYDARQLVRILIAGLRAAD', 'not failed'),
  ('MHYAFSRIRLRSFFGWMIIGVFLIMIPLDLTNVSENTMEVISQITVFFVFPLLWLYVKTNKNNVVFNSFFDKPGRLSWGLIVLATIMGMIFSVGISQIQFYILAHTLPNFLVTMLEDGNVINTSNVYMTIFTFISACVLAPIMEEVIFRGFFLQRMAYKWGIKKAVIISSIIFGLGHFDVIGAFMFGVVMCLLYIKTKNIWTNIAVHALNNLIATSMQFFGGEESGTISITELQAQSNLWIGIGLTVVGLLWLIPYVWKQWRTVKEVGVPPVRFINEQKVVSSSQENEVYSQVILTDRLMAIELPDEAVNKLRLEENDYVTVSVEEDKIVIKKAHNR', 'failed');
